Reported A570 nm-A630 nm values for a set of substances
test system: human retinal vascular endothelial cells (HRCEC); assay: MTT proliferation of human retinal vascular endothelial cells; assay type: cell-based; conditions: 120 μg/mL; HRCEC, 48 h, MTT
Where no end group is shown, it is not given here.
Please respond with just the number, no unit label.

Substance	A570 nm-A630 nm
mPEG2-NHS40k-Arg-Gly-Ala-Asp-Arg-Ala-Gly-Gly-Gly-Gly-Arg-Gly-Asp ({mPEG2‑NHS 40 kDa}-RGADRAGGGGRGD) [mPEG2-NHS40k-HM-1]	0.4920
mPEG-ALD40k-Arg-Gly-Ala-Asp-Arg-Ala-Gly-Gly-Gly-Gly-Arg-Gly-Asp ({mPEG‑ALD 40 kDa}-RGADRAGGGGRGD) [mPEG-ALD40k-HM-1]	0.4970
mPEG-SC40k-Arg-Gly-Ala-Asp-Arg-Ala-Gly-Gly-Gly-Gly-Arg-Gly-Asp ({mPEG‑SC 40 kDa}-RGADRAGGGGRGD) [mPEG-SC40k-HM-1]	0.4760

Now turn to the next substance.
Exam item: State the recorded A570 nm-A630 nm for this entry: mPEG-bALD40k-Arg-Gly-Ala-Asp-Arg-Ala-Gly-Gly-Gly-Gly-Arg-Gly-Asp ({mPEG‑bALD 40 kDa}-RGADRAGGGGRGD) [mPEG-bALD40k-HM-1]
Marked response: 0.4911

Origin of the recorded values: patent US10869931B2
